- MEASUREMENT_TARGET: PDLIM1, O00151
- Sequence (O00151 1-87): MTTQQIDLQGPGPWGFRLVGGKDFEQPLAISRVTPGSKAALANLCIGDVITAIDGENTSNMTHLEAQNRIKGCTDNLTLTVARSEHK
- ASSAY_REMARKS: holdup assay
- Parameters: key: below the threshold = too weak to quantify, mostly under pKd 3.1 to 4
- PARTICULARS: plain residues with an end cap or a label only (N-terminal biotin on a linker: ado-ado)
PROPERTY_MEASURED: pKd

binder="KRPEMTSSSV [MUC3A, MUC3B, Q02505;Q9H195]" property_measured=pKd value_observed="below the threshold"
binder="APIAGFSSFV [SDK2, Q58EX2]" property_measured=pKd value_observed="below the threshold"
binder="RQKEVRESKC [SCN8A, Q9UQD0]" property_measured=pKd value_observed="below the threshold"
